assay: Enzyme screens for resolution of diastereomeric mixture CHDP(MEMC)/THLP(MEMC) (Example 9); format: biochemical; conditions: 0.050M each isomer; pH 7.0; 5 h or 24 h; 5.0 to 50 mg/mL enzyme; 25° C.
TEST READOUT: % de (diastereomeric excess of the D-isomer, CHDP(MEMC)) (%)
Numbers only here, please. The scale is %.

Some entries whose results are on file:
{"columns": ["MOLECULE", "READOUT VALUE"],
 "data": [
  ["protease, trypsin porcine pancreas: commercial trypsin, source porcine pancreas (protein, UniProt P00761 9-231, looked up) Trypsin: IVGGYTCAANSIPYQVSLNSGSHFCGGSLINSQWVVSAAHCYKSRIQVRLGEHNIDVLEGNEQFINAAKIITHPNFNGNTLDNDIMLIKLSSPATLNSRVATVSLPRSCAAAGTECLISGWGNTKSSGSSYPSLLQCLKAPVLSDSSCKSSYPGQITGNMICVGFLEGGKDSCQGDSGGPVVCNGQLQGIVSWGYGCAQKNKPGVYTKVCNYVNWIQQTIAAN", 0],
  ["protease, type XXIV: commercial enzyme preparation, source bacterial (subtil. Carlsberg) (protein, UniProt P00780 106-379, looked up) Subtilisin Carlsberg: AQTVPYGIPLIKADKVQAQGFKGANVKVAVLDTGIQASHPDLNVVGGASFVAGEAYNTDGNGHGTHVAGTVAALDNTTGVLGVAPSVSLYAVKVLNSSGSGSYSGIVSGIEWATTNGMDVINMSLGGASGSTAMKQAVDNAYAKGVVVVAAAGNSGSSGNTNTIGYPAKYDSVIAVGAVDSNSNRASFSSVGAELEVMAPGAGVYSTYPTNTYATLNGTSMASPHVAGAAALILSKHPNLSASQVRNRLSSTATYLGSSFYYGKGLINVEAAAQ", 16]
]}

Next molecule, % de (diastereomeric excess of the D-isomer, CHDP(MEMC)) to be filled in.
Recorded % de (diastereomeric excess of the D-isomer, CHDP(MEMC)) for protease, type X: commercial enzyme preparation, source B. thermoproteoliticus rokko (protein, UniProt P00800 233-548, looked up) Thermolysin: ITGTSTVGVGRGVLGDQKNINTTYSTYYYLQDNTRGNGIFTYDAKYRTTLPGSLWADADNQFFASYDAPAVDAHYYAGVTYDYYKNVHNRLSYDGNNAAIRSSVHYSQGYNNAFWNGSQMVYGDGDGQTFIPLSGGIDVVAHELTHAVTDYTAGLIYQNESGAINEAISDIFGTLVEFYANKNPDWEIGEDVYTPGISGDSLRSMSDPAKYGDPDHYSKRYTGTQDNGGVHINSGIINKAAYLISQGGTHYGVSVVGIGRDKLGKIFYRALTQYLTPTSNFSQLRAAAVQSATDLYGSTSQEVASVKQAFDAVGVK , please? 0
